Below, each entry is listed with its recorded composite z-score.
- target: Focal adhesion kinase 1 (Homo sapiens)
- method_notes: small-molecule microarray binders of FAK, primary screen, biochemical, 635/667 nm fluorescence, BSA, DTT (AID 1130);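 note: composite of spot emission at 667 nm and signal to noise over triplicate slides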
- condition_parameters: PTK2 binding, 635 nm fluorescence, higher = more signal

compound: C#C[C@@H](CC)O[Si](C#CCCCC#N)(C(C)C)C(C)C
target: Focal adhesion kinase 1 (Homo sapiens)
composite z-score: 0.278

compound: COc1cc(NN2C(C(O)C3CCCCC3)C=CC3C(=O)N(c4ccccc4)C(=O)C32)cc(OC)c1OC (stereo not drawn)
target: Focal adhesion kinase 1 (Homo sapiens)
composite z-score: 0.724

compound: CO[C@H]1O[C@H](CO)[C@@H](OC(=O)CCc2ccccc2)[C@H](OC(=O)c2cc3ccccc3[nH]2)[C@H]1OC(=O)c1cc2ccccc2[nH]1
target: Focal adhesion kinase 1 (Homo sapiens)
composite z-score: 0.332

compound: [N-]=[N+]=NCc1ccccc1[C@@H]1OC(c2ccc(OCCCO)cc2)=N[C@]1(Cc1ccccc1N=[N+]=[N-])C(=O)NCCN1CCOCC1
target: Focal adhesion kinase 1 (Homo sapiens)
composite z-score: 0.535

compound: C=C[C@@H](C)[C@H](O)c1ccc(OCCO)cc1
target: Focal adhesion kinase 1 (Homo sapiens)
composite z-score: -0.232

compound: O=C1C2C=CC(C(O)c3ccc(I)cc3)N(Nc3ccccc3)C2C(=O)N1c1ccccc1 (stereo not drawn)
target: Focal adhesion kinase 1 (Homo sapiens)
composite z-score: 0.83

compound: C=CCC(OC(C)=O)[C@@H]1[C@@H](N(Cc2ccc(-c3ccccc3)cc2)C(=O)Cc2ccc(F)cc2)c2cc(OCCCO)ccc2N1C(=O)Cc1ccc2ccccc2c1 (stereo partly drawn)
target: Focal adhesion kinase 1 (Homo sapiens)
composite z-score: 0.318

compound: C=C(CCCC)/C(=C/C[C@H](OC(C)=O)c1ccc(OCCO)cc1)c1cc(C(=O)OC)ccc1OC
target: Focal adhesion kinase 1 (Homo sapiens)
composite z-score: 0.667

###

- target: Homeobox protein Hox-A13 (Mus musculus)
- method_notes: inhibitors of HoxA13-DNA binding, primary screen, biochemical, fluorescence polarization, labeled oligonucleotide (AID 1185)
- condition_parameters: 15 min, higher = more signal, called active from +8 up or from −8 down
observed_property: z-score

smiles_entry: Cc1ccc(S[C@]2(C(=O)NCC(C)C)CC(=O)N(C3Cc4ccccc4C3)[C@@H]2c2ccc(CO)cc2I)cc1
target: Homeobox protein Hox-A13 (Mus musculus)
observed_property: z-score
observed_measurement: -2.9
//
smiles_entry: C=C(COC)/C(=C/C[C@@H](OC(=O)c1ccncc1)c1ccccc1OCCO)c1cc(C(=O)OC)ccc1OC
target: Homeobox protein Hox-A13 (Mus musculus)
observed_property: z-score
observed_measurement: -4.02
//
smiles_entry: Cc1ccc(S[C@]2(C(=O)NCc3ccccc3)CC(=O)N(Cc3cc(C(F)(F)F)cc(C(F)(F)F)c3)[C@@H]2c2ccc(CO)cc2I)cc1
target: Homeobox protein Hox-A13 (Mus musculus)
observed_property: z-score
observed_measurement: -1.82

###

- method_notes: MM1S myeloma cell viability, profiling panel, resazurin fluorescence, basal, 24 h, PK04 Diversity Set (AID 1174);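 note: MM1S multiple myeloma cell line; test concentration not given here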
- condition_parameters: higher = more signal, called active from +8 up or from −8 down

compound: C=C(/C(=C/C[C@@H](OC(=O)c1ccncc1)c1cccc(OCCO)c1)c1cnc2ccccc2c1)C(C)C
z-score: -0.59

compound: [N-]=[N+]=NCc1ccccc1[C@@H]1OC(c2ccc(OCCCO)cc2)=N[C@]1(Cc1ccccc1N=[N+]=[N-])C(=O)NCCN1CCOCC1
z-score: 0.0903

compound: COCCOC(=O)N1C(=O)[C@@]2(c3ccccc31)[C@H](c1ccccc1OCCO)N1[C@H](c3ccccc3)[C@H](c3ccccc3)OC(=O)[C@H]1[C@@H]2C(N)=O
z-score: -2.78

compound: C=C/C=C/[C@@H]1C(=C)CN([C@@H](Cc2ccccc2)C(=O)OC)[C@H]1[C@@H](O)Cc1ccccc1
z-score: -0.196

compound: CCCCCN1CC=CC23O[C@@H]4/C=C\CCC(C)OC(=O)C4[C@H]2C(=O)N(CCCCCCO)[C@@H]3C1=O (some centres not stated)
z-score: 0.798

compound: C=C(C)[C@@H]1CC=C(C(O)C2C=CC3C(=O)N(c4ccccc4)C(=O)C3N2Nc2ccc(C#N)cc2)CC1 (some centres not stated)
z-score: -0.591

compound: Nc1cc(Br)ccc1C(=O)O
z-score: 1.11
